# tgt: Oxysterols receptor LXR-alpha (Homo sapiens, UniProt Q13133)
# Sequence (Q13133 whole entry): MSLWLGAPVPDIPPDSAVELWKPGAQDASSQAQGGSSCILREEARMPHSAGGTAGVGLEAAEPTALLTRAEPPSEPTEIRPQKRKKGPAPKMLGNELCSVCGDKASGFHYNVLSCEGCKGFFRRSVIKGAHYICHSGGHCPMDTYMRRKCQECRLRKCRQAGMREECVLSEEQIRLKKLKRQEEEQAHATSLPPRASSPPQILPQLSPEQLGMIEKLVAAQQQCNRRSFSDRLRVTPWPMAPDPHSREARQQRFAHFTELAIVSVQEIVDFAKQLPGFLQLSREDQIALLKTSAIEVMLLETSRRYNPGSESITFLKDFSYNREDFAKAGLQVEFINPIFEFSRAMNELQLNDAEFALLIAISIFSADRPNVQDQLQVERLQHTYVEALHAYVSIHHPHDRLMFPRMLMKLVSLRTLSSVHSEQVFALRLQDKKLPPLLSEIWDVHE
# Format: functional
Give AC50 for every item shown.

q: Entry CNC(=O)c1cc(Oc2ccc(NC(=O)Nc3ccc(Cl)c(C(F)(F)F)c3)c(F)c2)ccn1 [REGORAFENIB] , system Oxysterols receptor LXR-alpha (Homo sapiens, UniProt Q13133): what AC50 was measured?; further: assay procedure not described here
a: > 30 µM

q: State its AC50 on Oxysterols receptor LXR-alpha (Homo sapiens, UniProt Q13133): CC1(C)S[C@@H]2[C@H](NC(=O)[C@H](N)c3ccc(O)cc3)C(=O)N2[C@H]1C(=O)O [AMOXICILLIN]
a: 19 µM

q: For Oxysterols receptor LXR-alpha (Homo sapiens, UniProt Q13133), provide AC50 of CC(/C=C1\SC(=S)N(CC(=O)O)C1=O)=C\c1ccccc1 please.
a: > 30 µM

q: API: value(readout=AC50, system=Oxysterols receptor LXR-alpha (Homo sapiens, UniProt Q13133)) for record CCOc1cc(CC(=O)N[C@@H](CC(C)C)c2ccccc2N2CCCCC2)ccc1C(=O)O [REPAGLINIDE]; further: assay procedure not described here
a: > 30 µM

====

I'd appreciate it if you could supply AC50 values for the items below.
# tgt: 3',5'-cyclic-AMP phosphodiesterase 4D (Homo sapiens, UniProt Q08499)
# Sequence (Q08499 whole entry): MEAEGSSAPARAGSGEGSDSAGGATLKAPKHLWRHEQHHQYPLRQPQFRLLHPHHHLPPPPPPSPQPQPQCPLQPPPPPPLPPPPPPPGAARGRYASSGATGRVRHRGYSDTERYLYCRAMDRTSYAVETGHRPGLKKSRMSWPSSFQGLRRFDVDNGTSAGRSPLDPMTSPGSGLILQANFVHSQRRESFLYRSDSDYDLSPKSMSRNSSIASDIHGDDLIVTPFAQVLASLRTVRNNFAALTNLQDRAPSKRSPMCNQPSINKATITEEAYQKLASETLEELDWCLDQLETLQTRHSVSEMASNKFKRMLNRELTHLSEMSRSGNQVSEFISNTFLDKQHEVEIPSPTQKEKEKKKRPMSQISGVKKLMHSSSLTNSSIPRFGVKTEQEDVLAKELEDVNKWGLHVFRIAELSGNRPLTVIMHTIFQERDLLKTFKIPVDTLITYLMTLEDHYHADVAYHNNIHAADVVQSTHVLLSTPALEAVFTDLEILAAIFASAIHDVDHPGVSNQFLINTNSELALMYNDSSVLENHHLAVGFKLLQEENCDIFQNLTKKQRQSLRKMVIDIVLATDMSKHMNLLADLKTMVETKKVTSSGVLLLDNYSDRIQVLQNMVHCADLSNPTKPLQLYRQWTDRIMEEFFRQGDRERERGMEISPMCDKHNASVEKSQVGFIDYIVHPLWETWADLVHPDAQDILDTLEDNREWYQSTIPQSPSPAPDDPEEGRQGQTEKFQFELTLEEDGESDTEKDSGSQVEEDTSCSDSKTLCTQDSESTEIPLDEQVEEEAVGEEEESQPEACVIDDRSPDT
# Format: functional

q: Give the measured AC50 of N=C(N)c1ccc2cc(OC(=O)c3ccc(N=C(N)N)cc3)ccc2c1 .
a: > 30 µM

q: Tell me the measured AC50 of O=C(CCCN1CCC(n2c(O)nc3ccccc32)CC1)c1ccc(F)cc1 , please.
a: > 30 µM

q: Recorded AC50 of Cc1cccc(N(C)C(=S)Oc2ccc3ccccc3c2)c1 [TOLNAFTATE] , please.
a: > 30 µM

q: Entry CN(C)c1cc(CNCC(C)(C)C)c(O)c2c1C[C@H]1C[C@H]3[C@H](N(C)C)C(O)=C(C(N)=O)C(=O)[C@@]3(O)C(O)=C1C2=O : reported AC50 = ?
a: > 30 µM

q: Could you tell me which AC50 is on file for O=c1oc2ccccc2c(O)c1Cc1c(O)c2ccccc2oc1=O ?
a: 6.3 µM

q: Recorded AC50 for Nc1ccn([C@@H]2O[C@H](CO)[C@@H](O)C2(F)F)c(=O)n1 , please?
a: 16 µM

q: Which AC50 is reported for this molecule? COc1cccc2c1C(=O)c1c(O)c3c(c(O)c1C2=O)C[C@@](O)(C(C)=O)C[C@@H]3O[C@H]1C[C@H](N)[C@H](O)[C@H](C)O1
a: 22 µM

q: Request the reported AC50 associated with CC(C)(C)NCC(O)c1cc(Cl)c(N)c(Cl)c1 (stereo not drawn)
a: > 30 µM

====

System: D(3) dopamine receptor (Homo sapiens, UniProt P35462) | Read-out: AC50; further: assay procedure not described here
Sequence (P35462 whole entry): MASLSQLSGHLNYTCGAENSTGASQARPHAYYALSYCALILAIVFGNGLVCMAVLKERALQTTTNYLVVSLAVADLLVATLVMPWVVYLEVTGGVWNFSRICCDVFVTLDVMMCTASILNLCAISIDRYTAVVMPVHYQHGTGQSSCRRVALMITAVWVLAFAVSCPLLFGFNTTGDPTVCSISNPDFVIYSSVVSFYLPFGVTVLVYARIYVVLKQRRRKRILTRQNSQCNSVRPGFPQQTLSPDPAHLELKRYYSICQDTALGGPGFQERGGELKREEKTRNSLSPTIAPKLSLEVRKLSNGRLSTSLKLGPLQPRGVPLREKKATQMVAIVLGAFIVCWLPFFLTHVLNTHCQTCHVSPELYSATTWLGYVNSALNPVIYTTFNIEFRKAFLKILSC

q: Reported AC50 for N[C@@H](CC(=O)O)C(=O)O [ASPARTIC ACID] : what is it?
a: > 30 µM

q: Requested field: AC50. Item: CCOC(=O)[C@H](CCc1ccccc1)N[C@@H](C)C(=O)N1Cc2cc(OC)c(OC)cc2C[C@H]1C(=O)O [MOEXIPRIL]
a: > 30 µM

q: // query AC50 value for entry CCn1cc(C(=O)O)c(=O)c2cc(F)c(N3CCNCC3)nc21 [ENOXACIN]
a: > 30 µM

q: AC50 for CN(C)CCCN1C(=O)c2cc([N+](=O)[O-])ccc2Oc2ccccc21 ?
a: 15 µM

q: Suppose we examine the compound O=C1c2c(O)cccc2Cc2cccc(O)c21 [ANTHRALIN] ; what AC50 value has been reported?
a: > 30 µM

q: State the recorded AC50 for this entry: CC(C1=C(CCN(C)C)Cc2ccccc21)c1ccccn1 (stereo unspecified)
a: 6.44 µM

====

Target or system Muscarinic acetylcholine receptor M2 (Homo sapiens); recorded quantity AC50. Further: assay procedure not described here.

q: I am curious: what AC50 value has been reported for O=C1Nc2ccc(Cl)cc2C(c2ccccc2)=NC1O (centres undefined) ?
a: > 10 µM

q: Quick one: AC50 of CNCCCC1c2ccccc2C=Cc2ccccc21 ?
a: 0.653 µM

q: So what does the record say about AC50 for CCc1oc2ccccc2c1C(=O)c1cc(Br)c(O)c(Br)c1 ?
a: 0.0373 µM

q: Would you mind telling me what AC50 value was observed for CC(=O)OCC(CCn1cnc2cnc(N)nc21)COC(C)=O ?
a: > 10 µM

q: Give its AC50 value. Item: CCn1cc(C(=O)O)c(=O)c2cc(F)c(N3CCNCC3)nc21
a: > 10 µM

q: Give the measured AC50 of CCCCNc1ccc(C(=O)OCCN(C)C)cc1 .
a: > 10 µM

q: What value of measured AC50 is listed for C[C@]1(COc2ccc(N3CCC(Oc4ccc(OC(F)(F)F)cc4)CC3)cc2)Cn2cc([N+](=O)[O-])nc2O1 ?
a: > 10 µM

q: // lookup AC50 for CC#CCn1c(N2CCC[C@@H](N)C2)nc2c1c(=O)n(Cc1nc(C)c3ccccc3n1)c(=O)n2C
a: > 10 µM

q: Given the compound CC(=O)S[C@@H]1CC2=CC(=O)CC[C@]2(C)[C@H]2CC[C@@]3(C)[C@@H](CC[C@@]34CCC(=O)O4)[C@H]12 , what is its reported AC50?
a: > 10 µM

====

Give AC50 for every item shown.

q: Form field: AC50 recorded for O=C(O)c1cc(O)c2c3nc4ccccc4oc-3cc(=O)c2n1 with Beta-2 adrenergic receptor (Homo sapiens) (enter value)
a: > 30 µM

q: Give recorded AC50 with Beta-2 adrenergic receptor (Homo sapiens) for the following compound: [H]/N=C(\N/C(=N/[H])NCCCCCCNC(=N)NC(=N)Nc1ccc(Cl)cc1)Nc1ccc(Cl)cc1
Sequence (P07550 whole entry): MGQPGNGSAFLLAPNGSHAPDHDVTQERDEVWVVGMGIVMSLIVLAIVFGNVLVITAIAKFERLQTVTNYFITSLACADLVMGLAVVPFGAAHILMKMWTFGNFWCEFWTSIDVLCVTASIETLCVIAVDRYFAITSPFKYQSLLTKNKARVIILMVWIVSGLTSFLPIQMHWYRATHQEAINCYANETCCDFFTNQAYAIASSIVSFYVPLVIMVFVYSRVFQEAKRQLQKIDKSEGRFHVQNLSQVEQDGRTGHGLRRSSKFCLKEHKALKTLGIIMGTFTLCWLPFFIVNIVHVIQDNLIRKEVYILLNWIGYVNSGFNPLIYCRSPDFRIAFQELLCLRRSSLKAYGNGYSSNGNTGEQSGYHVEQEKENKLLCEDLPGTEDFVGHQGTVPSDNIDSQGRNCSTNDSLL
a: 6.5 µM

q: // lookup AC50 | system=Beta-2 adrenergic receptor (Homo sapiens) | key= Clc1ccc2c(c1)C(c1ccccc1)=NCc1nncn1-2; further: assay procedure not described here
a: > 10 µM

q: Under Beta-2 adrenergic receptor (Homo sapiens): AC50 value of Cc1cccc(N(C)C(=S)Oc2ccc3ccccc3c2)c1 [TOLNAFTATE] ?
a: > 10 µM

q: Checklist item: AC50 tested on Beta-2 adrenergic receptor (Homo sapiens), entry CN(C)c1cc(NC(=O)CNC(C)(C)C)c(O)c2c1C[C@H]1C[C@H]3[C@H](N(C)C)C(O)=C(C(N)=O)C(=O)[C@@]3(O)C(O)=C1C2=O , value?; further: assay procedure not described here
a: > 30 µM

q: Recall the recorded AC50 for Nc1nc(O)c2ncn(COC(CO)CO)c2n1 with Beta-2 adrenergic receptor (Homo sapiens) and state it.
a: > 30 µM

q: Form field: AC50 recorded for CCOC(=O)NNc1ccc(N(CC)CC(C)O)nn1 (stereo unspecified) with Beta-2 adrenergic receptor (Homo sapiens) (enter value)
a: > 30 µM

q: Identify the measured AC50 of Nc1ccn([C@@H]2O[C@H](CO)[C@@H](O)C2(F)F)c(=O)n1 for Beta-2 adrenergic receptor (Homo sapiens).
a: > 30 µM

q: Give Beta-2 adrenergic receptor (Homo sapiens) AC50 for O=C1CN=C(c2ccccc2)c2cc(Cl)ccc2N1
a: > 10 µM

q: Request: AC50, test system Beta-2 adrenergic receptor (Homo sapiens), entry N#C[C@@H]1CCCN1C(=O)CNC12CC3CC(CC(O)(C3)C1)C2; further: assay procedure not described here
a: > 10 µM

q: Request - read-out AC50 | tested on Beta-2 adrenergic receptor (Homo sapiens) | compound CCN(CC)CC(=O)Oc1ccc(NC(C)=O)cc1; further: assay procedure not described here
a: > 30 µM

q: Could you share what AC50 was measured for COc1ccc(C(CN(C)C)C2(O)CCCCC2)cc1 (stereo unspecified) , tested on Beta-2 adrenergic receptor (Homo sapiens)?; further: assay procedure not described here
a: > 10 µM

q: Hi! What's the reported AC50 for C=CC(N)CCC(=O)O (stereo unspecified) on Beta-2 adrenergic receptor (Homo sapiens)?
a: > 10 µM

q: What value of AC50 on Beta-2 adrenergic receptor (Homo sapiens) does O=C(Nc1nc(-c2cc(Cl)cs2)c(N2CCN(C3CCCCC3)CC2)s1)c1cnc(N2CCC(C(=O)O)CC2)c(Cl)c1 have?
a: > 10 µM

q: Value wanted: AC50 (Beta-2 adrenergic receptor (Homo sapiens)) of entry COc1ccnc(C[S+]([O-])c2nc3ccc(OC(F)F)cc3[nH]2)c1OC (stereo unspecified)
a: > 10 µM

q: GET /values?readout=AC50&system=Beta-2 adrenergic receptor (Homo sapiens)&item= COC1=C(OC)C(=O)C(CCCCCCCCCCO)=C(C)C1=O; further: assay procedure not described here
a: > 10 µM

q: What is its AC50 for Beta-2 adrenergic receptor (Homo sapiens)? Entry: CC(=O)Oc1ccccc1C(=O)Nc1ncc([N+](=O)[O-])s1 [NITAZOXANIDE]
a: 7.8 µM

q: Report AC50 for O=C(CCCN1CCC(n2c(O)nc3ccccc32)CC1)c1ccc(F)cc1 tested on Beta-2 adrenergic receptor (Homo sapiens). Further: assay procedure not described here.
a: 8.6 µM

q: Item COc1cccc(N(C)C(=S)Oc2ccc3c(c2)CCCC3)n1 [LIRANAFTATE] with Beta-2 adrenergic receptor (Homo sapiens) - AC50?
a: > 30 µM

q: Entry CCCCCCOC(=O)CCC(=O)CN [HEXAMINOLEVULINATE] , system Beta-2 adrenergic receptor (Homo sapiens): what AC50 was measured?; further: assay procedure not described here
a: > 30 µM

q: Hello, I am looking for reported AC50 with Beta-2 adrenergic receptor (Homo sapiens) for CC(=O)c1ccc2c(c1)N(CCCN1CCC(CCO)CC1)c1ccccc1S2 . Could you help?
a: 22 µM

q: Form entry - test system: Beta-2 adrenergic receptor (Homo sapiens); read-out: AC50; compound: OCCN1CCN(CC/C=C2/c3ccccc3Sc3ccc(Cl)cc32)CC1; further: assay procedure not described here
a: > 10 µM

q: Request: AC50, test system Beta-2 adrenergic receptor (Homo sapiens), entry Cc1ccc2c(-c3ccccc3)nc(=O)n(C(C)C)c2c1; further: assay procedure not described here
a: > 30 µM

q: Identify the measured AC50 of CC1(C)O[C@@H]2[C@@H](CO[C@@]3(COS(N)(=O)=O)OC(C)(C)O[C@@H]23)O1 [TOPIRAMATE] for Beta-2 adrenergic receptor (Homo sapiens).
a: > 10 µM

q: Notebook: pull reported AC50 for Beta-2 adrenergic receptor (Homo sapiens), entry CC(C)N(CCCCOCC(=O)NS(C)(=O)=O)c1cnc(-c2ccccc2)c(-c2ccccc2)n1
a: > 30 µM

q: Under Beta-2 adrenergic receptor (Homo sapiens): AC50 value of CN(C)C(=O)Oc1cc(OC(=O)N(C)C)cc(C(O)CNC(C)(C)C)c1 (stereo unspecified) ?
a: 9.7 µM

q: Recorded AC50 for CC(=O)Nc1c(I)c(C(=O)N[C@H]2C(O)O[C@H](CO)[C@@H](O)[C@@H]2O)c(I)c(N(C)C(C)=O)c1I (stereo partly specified) [METRIZAMIDE] with Beta-2 adrenergic receptor (Homo sapiens), please?
a: > 10 µM

q: // lookup AC50 | system=Beta-2 adrenergic receptor (Homo sapiens) | key= CCN(CC)C(=O)C1(c2ccccc2)CC1CN (stereo unspecified); further: assay procedure not described here
a: > 30 µM

q: Give Beta-2 adrenergic receptor (Homo sapiens) AC50 for CC(=O)/N=c1/sc(S(N)(=O)=O)nn1C [METHAZOLAMIDE]
a: > 10 µM

q: What measured AC50 is associated with CCN(CC)C(=O)C1CN2CCc3cc(OC)c(OC)cc3C2CC1OC(C)=O (stereo unspecified) [BENZQUINAMIDE] on Beta-2 adrenergic receptor (Homo sapiens)?
a: > 10 µM

q: Form entry - test system: Beta-2 adrenergic receptor (Homo sapiens); read-out: AC50; compound: CC(=O)OCC[N+](C)(C)C; further: assay procedure not described here
a: > 30 µM

q: For Beta-2 adrenergic receptor (Homo sapiens), provide AC50 of CNC(=O)Oc1ccc2c(c1)[C@]1(C)CCN(C)[C@@H]1N2C please.
a: > 30 µM

q: Lab request: please report AC50 under test system Beta-2 adrenergic receptor (Homo sapiens) for CCCCCCNC(=O)n1cc(F)c(=O)[nH]c1=O; further: assay procedure not described here
a: > 30 µM

q: Field: AC50 (Beta-2 adrenergic receptor (Homo sapiens)). Entry: NC(=O)c1ncn([C@@H]2O[C@H](CO)[C@@H](O)[C@H]2O)n1
a: > 10 µM

q: Test system Beta-2 adrenergic receptor (Homo sapiens); read-out AC50; what value for CC(=O)O[C@H]1C[C@@H]2CC[C@@H]3[C@H](CC[C@@]4(C)[C@H]3C[C@H]([N+]3(C)CCCCC3)[C@@H]4OC(C)=O)[C@@]2(C)C[C@@H]1[N+]1(C)CCCCC1 ?; further: assay procedure not described here
a: > 10 µM

q: Test system Beta-2 adrenergic receptor (Homo sapiens); read-out AC50; what value for CCCCC[C@H](O)/C=C/[C@H]1[C@H](O)CC(=O)[C@@H]1C/C=C\CCCC(=O)O ?; further: assay procedure not described here
a: > 30 µM
